- Tested on: Saccharomyces cerevisiae BY4741 SeMeCo community
- measurement.protocol: z-score of subpopulation abundance vs DMSO median, subpopulation auxotrophic for U; higher = larger share of this subpopulation than in DMSO controls
- settings: 10 µM; 24 h; SM minimal medium; subpopulation (auxotrophy): U
Classification field: enter y for z-score of subpopulation abundance values not below -0.01, n for values below it.

compound | category
COc1ccc2cc(CCC(C)=O)ccc2c1 [Nabumetone] | y
CC(C)N1CCN(c2ccc(OCC3COC(Cn4cncn4)(c4ccc(Cl)cc4Cl)O3)cc2)CC1 (configuration not stated) [Terconazole] | n
COc1ccc(CC2c3cc(OC)c(OC)cc3CC[N+]2(C)CCC(=O)OCCCCCOC(=O)CC[N+]2(C)CCc3cc(OC)c(OC)cc3C2Cc2ccc(OC)c(OC)c2)cc1OC (configuration not stated) [Atracurium Besylate] | n
CC(=O)OC1CC2(C)C(CC(O)C3C4(C)CCC(O)C(C)C4CCC32C)C1=C(CCC=C(C)C)C(=O)O (configuration not stated) [Fusidine] | n
OCc1ccc(Cl)cc1Cl [2,4-dichlorobenzyl alcohol] | y
C=CC[N+]1([C@H]2C[C@H]3[C@@H]4CC[C@H]5C[C@H](O)[C@@H](N6CCOCC6)C[C@]5(C)[C@H]4CC[C@]3(C)[C@H]2OC(C)=O)CCCC1 [Rocuronium Bromide] | n
